Origin of measurements: paper PMC10786891

Target: T1, EsCas13d, nuclease-dead (Eubacterium siraeum, UniProt B0MS50, R295A;H300A;R849A;H854A)
T1 sequence: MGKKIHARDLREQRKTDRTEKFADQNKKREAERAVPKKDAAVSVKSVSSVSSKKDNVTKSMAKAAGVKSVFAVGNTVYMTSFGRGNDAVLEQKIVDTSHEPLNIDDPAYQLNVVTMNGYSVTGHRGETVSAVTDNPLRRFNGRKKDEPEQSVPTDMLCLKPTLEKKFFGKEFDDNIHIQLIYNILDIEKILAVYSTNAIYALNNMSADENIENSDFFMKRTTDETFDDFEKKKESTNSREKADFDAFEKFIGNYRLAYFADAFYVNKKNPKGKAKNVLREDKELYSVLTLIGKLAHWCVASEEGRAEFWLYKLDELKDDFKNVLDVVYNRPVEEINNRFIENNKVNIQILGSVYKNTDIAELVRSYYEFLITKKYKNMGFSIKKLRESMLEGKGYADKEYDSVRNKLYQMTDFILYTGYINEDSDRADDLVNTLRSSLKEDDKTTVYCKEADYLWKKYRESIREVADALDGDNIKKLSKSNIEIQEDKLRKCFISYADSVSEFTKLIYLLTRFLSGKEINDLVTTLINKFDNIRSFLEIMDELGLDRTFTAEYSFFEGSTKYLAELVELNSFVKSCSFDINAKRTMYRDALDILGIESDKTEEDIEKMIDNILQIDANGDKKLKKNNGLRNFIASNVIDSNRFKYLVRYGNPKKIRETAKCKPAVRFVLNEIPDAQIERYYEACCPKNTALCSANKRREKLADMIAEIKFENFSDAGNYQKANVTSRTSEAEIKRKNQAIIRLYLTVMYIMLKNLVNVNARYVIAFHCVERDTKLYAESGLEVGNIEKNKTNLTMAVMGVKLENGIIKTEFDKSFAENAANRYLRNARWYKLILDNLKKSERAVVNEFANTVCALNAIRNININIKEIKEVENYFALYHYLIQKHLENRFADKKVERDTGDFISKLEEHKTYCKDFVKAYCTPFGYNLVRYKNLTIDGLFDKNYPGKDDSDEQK
Experiment: crRNA (strand 1, pre-loaded); Mg2+; 40 mM Tris-HCl pH 7.5, 150 mM NaCl, 6 mM MgCl2, 1 mM DTT, 0.1% Tween-20, 0.2 mg/ml BSA; 25 C; 10 min per concentration, then washed
Conditions: tags: His6-TwinStrep-SUMO cleaved; N-terminal SNAP kept (SNAP-Surface 488); label: 3' end held by stalled T7 RNA polymerase
PROPERTY: pKd
# reply with the number alone; pKd is -log10 of concentration in mol/L

Form field pKd, entry target 3 G4A,A5G (mixed) RNA 1: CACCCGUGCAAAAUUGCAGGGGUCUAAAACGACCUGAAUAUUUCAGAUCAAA RNA 2: GGGAAUGGAUCCACAUCUACGAAUUCGUUUUUGAUCUGAAAUAUUCGAGUCUGCAGAUCGGAAGAGCACACGU : 7.71

Form field pKd, entry target 3 insC 3' of 22,insU 3' of 3 (mixed) RNA 1: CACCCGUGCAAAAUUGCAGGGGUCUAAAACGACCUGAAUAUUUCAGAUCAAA RNA 2: GGGAAUGGAUCCACAUCUACGAAUUCGUUUCUUGAUCUGAAAUAUUCAGGUUCUGCAGAUCGGAAGAGCACACGU : 7.24

Form field pKd, entry target 2 MT 5'PFS ACA 3'PFS AAC (mixed) RNA 1: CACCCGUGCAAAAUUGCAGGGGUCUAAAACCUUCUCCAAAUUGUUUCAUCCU RNA 2: GGGAAUGGAUCCACAUCUACGAAUUCACAAGGAUGAAACAAUUUGGAGAAGAACAGAUCGGAAGAGCACACGU : 8.40

Form field pKd, entry target 1 insC 3' of 15,insU 3' of 14 (mixed) RNA 1: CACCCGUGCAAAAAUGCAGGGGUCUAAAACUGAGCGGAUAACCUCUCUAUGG RNA 2: GGGAAUGGAUCCACAUCUACGAAUUCGUACCAUAGAGCAUGGUUAUCCGCUCACCGAGAUCGGAAGAGCACACGU : 7.55

Form field pKd, entry target 1 insA 3' of 7,insU 3' of 6 (mixed) RNA 1: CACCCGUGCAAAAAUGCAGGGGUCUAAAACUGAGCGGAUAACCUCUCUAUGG RNA 2: GGGAAUGGAUCCACAUCUACGAAUUCGUACCAUAGAGAGGUUAUCACUGCUCACCGAGAUCGGAAGAGCACACGU : 8.12
